system: Plasmodium berghei; assay: Luciferase/luciferin-expressing antifolate-resistant parasites were used to infect a culture of HepG2 cells that were pre-incubated with compounds. Infected hepatocytes emit light due to the luciferase reaction. Assay results are presented as the percent inhibition of light emission compared to control. […]; format: functional; conditions: sporozoite, PBLUC_HILL_SLOPE 3.21, PBLUC_R_SQUARED 0.483, read-out: LUCIFERASE INFECTION ASSAY - IC50
pIC50: −log10 of the molar value.

compound: Oc1c(C(c2ccc(F)cc2)N2CCCCC2)cc(Cl)c2cccnc12 (stereo unspecified)
pIC50: 5.21

====

test system: Plasmodium berghei; assay: Luciferase/luciferin-expressing antifolate-resistant parasites were used to infect a culture of HepG2 cells that were pre-incubated with compounds. Infected hepatocytes emit light due to the luciferase reaction. Assay results are presented as the percent inhibition of light emission compared to control. […]; assay type: functional; details: sporozoite, PBLUC_HILL_SLOPE 7.81, PBLUC_R_SQUARED 0.364, read-out: LUCIFERASE INFECTION ASSAY - IC50

compound: O=C(Cn1c(=O)oc2ccccc21)N1CCCC1c1nc2ccccc2s1 (stereo unspecified)
IC50 / µM: 8.38

====

tested on: Plasmodium berghei; assay: Luciferase/luciferin-expressing antifolate-resistant parasites were used to infect a culture of HepG2 cells that were pre-incubated with compounds. Infected hepatocytes emit light due to the luciferase reaction. Assay results are presented as the percent inhibition of light emission compared to control. […]; type: functional; settings: sporozoite, read-out: LUCIFERASE INFECTION ASSAY - IC90
Each record here notes measured IC90.
endpoint-name: IC90

compound: O=C1CSC(=O)N1CCN=Cc1c(O)n(-c2ccc(Cl)cn2)c(=O)c2ccccc12
endpoint-name: IC90
test-result: > 10 µM

compound: O=S(=O)(NCc1cc(Cl)cc(Cl)c1)c1cc(C(F)(F)F)cc(C(F)(F)F)c1
endpoint-name: IC90
test-result: > 7.3 µM

compound: O=C(Nc1cccc(Cl)c1)OCc1ccccc1F
endpoint-name: IC90
test-result: > 11.8 µM

compound: CNC(=O)c1ccc(CN(Cc2ccco2)c2nc(C(F)(F)F)nc3ccccc23)cc1
endpoint-name: IC90
test-result: 3.56 µM

compound: O=C1CN(C(=O)CNC(c2ccccc2)c2cccs2)c2ccccc2N1 (stereo unspecified)
endpoint-name: IC90
test-result: > 10 µM

compound: Cn1c(Oc2cccc3c2OC(C)(C)C3)c(C#N)c(=O)n(C)c1=O
endpoint-name: IC90
test-result: 0.188 µM

compound: O=C(Nc1cccc(/C=C/c2ccc3cccc(O)c3n2)c1)C(F)(F)F
endpoint-name: IC90
test-result: > 10 µM

compound: N#Cc1cccc(CN2CCN3C(C(=O)Nc4ccc(Oc5ccccc5)cc4)=COC3=NC2=O)c1
endpoint-name: IC90
test-result: > 10 µM

compound: Cn1cc(-c2cnc3cnc(-c4cccc(Cl)c4)cn23)cn1
endpoint-name: IC90
test-result: > 10.7 µM

compound: Cn1c(CC(=O)NNC(=O)c2ccccc2Nc2ccccc2)nc2ccccc21
endpoint-name: IC90
test-result: 3.3 µM

compound: Cc1nn2c(=O)cc(-c3ccccc3)[nH]c2c1-c1ccc(F)cc1
endpoint-name: IC90
test-result: 1.16 µM

compound: CN(CC(=O)Nc1ccc(F)c(F)c1F)C(C(=O)Nc1ccc(Cl)c(C(F)(F)F)c1)c1ccccc1 (stereo unspecified)
endpoint-name: IC90
test-result: > 10 µM

compound: Cc1cc2ncc(C(=O)Nc3nc4c(s3)CN(Cc3ccccc3)CC4)c(C)n2n1
endpoint-name: IC90
test-result: > 10 µM

compound: CC(C)(C)c1ccc(-n2c(SCc3ccc(Cl)cc3)nnc2-c2ccccc2Cl)cc1
endpoint-name: IC90
test-result: > 7.04 µM

compound: O=C1c2ccccc2C(O)(C#Cc2ccccc2)N1c1ccccc1 (stereo unspecified)
endpoint-name: IC90
test-result: 8.45 µM

compound: CC(C)Cn1c(-c2cccs2)nc2c(c(=O)c3ccccc3n2C)c1=O
endpoint-name: IC90
test-result: 8.59 µM

compound: O=C(Nc1nc(-c2c[nH]c3ccccc23)cs1)C1CCN(S(=O)(=O)/C=C/c2ccccc2)CC1
endpoint-name: IC90
test-result: > 10 µM

compound: O=C(Nc1ccc(OC(F)(F)F)cc1)c1ccc(=O)n(Cc2ccc(Cl)cc2)c1
endpoint-name: IC90
test-result: > 7.81 µM

compound: N#Cc1ccc(NC(=O)Cn2ncc(Cl)c(Cl)c2=O)cc1
endpoint-name: IC90
test-result: 5.23 µM

compound: C/C(=N\NC(=O)Nc1ccc(Cl)cc1)c1ccc2c(c1)OCCO2
endpoint-name: IC90
test-result: 9.81 µM

compound: CN(Cc1ccc2c(c1)OCO2)c1ccc(C(=O)NC2CC2)cn1
endpoint-name: IC90
test-result: > 10 µM

====

tested on: Plasmodium berghei; assay: Luciferase/luciferin-expressing antifolate-resistant parasites were used to infect a culture of HepG2 cells that were pre-incubated with compounds. Infected hepatocytes emit light due to the luciferase reaction. Assay results are presented as the percent inhibition of light emission compared to control. […]; assay type: functional; conditions: sporozoite, HEPG2TOX_HILL_SLOPE 9.14, HEPG2TOX_R_SQUARED 0.239, read-out: LUCIFERASE INFECTION ASSAY - IC50

smiles-code: Cc1nc(Sc2nnnn2-c2ccccc2)c2c3c(sc2n1)CCC3
IC50: > 10 µM

====

test system: Plasmodium berghei; assay: Luciferase/luciferin-expressing antifolate-resistant parasites were used to infect a culture of HepG2 cells that were pre-incubated with compounds. Infected hepatocytes emit light due to the luciferase reaction. Assay results are presented as the percent inhibition of light emission compared to control. […]; assay type: functional; conditions: sporozoite, PBLUC_HILL_SLOPE 1.22, PBLUC_R_SQUARED 0.219, read-out: LUCIFERASE INFECTION ASSAY - IC50
endpoint-name: IC50 (µM)

smiles-code: CN1/C(=C/C=C2c3ccccc3-c3ccccc32)C=Cc2ccccc21
test-result: 8.03

====

test system: Plasmodium berghei; assay: Luciferase/luciferin-expressing antifolate-resistant parasites were used to infect a culture of HepG2 cells that were pre-incubated with compounds. Infected hepatocytes emit light due to the luciferase reaction. Assay results are presented as the percent inhibition of light emission compared to control. […]; type: functional; details: sporozoite, PBLUC_HILL_SLOPE 1.61, PBLUC_R_SQUARED 0.436, read-out: LUCIFERASE INFECTION ASSAY - IC50

smiles-code: N=C(N)N/N=C\c1cccc2ccccc12
unit-name: µM
IC50: 6.92

====

system: Plasmodium berghei; assay: Luciferase/luciferin-expressing antifolate-resistant parasites were used to infect a culture of HepG2 cells that were pre-incubated with compounds. Infected hepatocytes emit light due to the luciferase reaction. Assay results are presented as the percent inhibition of light emission compared to control. […]; type: functional; conditions: sporozoite, PBLUC_HILL_SLOPE 2.4, PBLUC_R_SQUARED 0.128, read-out: LUCIFERASE INFECTION ASSAY - IC50
endpoint-name: IC50 (µM)

smiles-code: COc1cc(C(=O)Nc2ccc(C(=O)NC3CC3)cc2)cc(Cl)c1OC(C)C
unit-name: µM
test-result: 6.06

====

tested on: Plasmodium berghei; assay: Luciferase/luciferin-expressing antifolate-resistant parasites were used to infect a culture of HepG2 cells that were pre-incubated with compounds. Infected hepatocytes emit light due to the luciferase reaction. Assay results are presented as the percent inhibition of light emission compared to control. […]; assay type: functional; conditions: sporozoite, HEPG2TOX_HILL_SLOPE 8.4, HEPG2TOX_R_SQUARED 0.356, PBLUC_HILL_SLOPE 3.39, PBLUC_R_SQUARED 0.397, read-out: LUCIFERASE INFECTION ASSAY - IC50

smiles-code: COc1cc(-c2cnc3c(Nc4cccc(OC(F)(F)C(F)F)c4)nccn23)cc(OC)c1OC
IC50: 2810 nM

====

system: Plasmodium berghei; test: Luciferase/luciferin-expressing antifolate-resistant parasites were used to infect a culture of HepG2 cells that were pre-incubated with compounds. Infected hepatocytes emit light due to the luciferase reaction. Assay results are presented as the percent inhibition of light emission compared to control. […]; assay type: functional; conditions: sporozoite, HEPG2TOX_HILL_SLOPE 14.4, HEPG2TOX_R_SQUARED 0.857, PBLUC_HILL_SLOPE 6.94, PBLUC_R_SQUARED 0.445, read-out: LUCIFERASE INFECTION ASSAY - IC50

smiles-code: CN(C)C(=O)c1ccc(-c2ccnc3n[nH]c(-c4ccc(N(C)C)cc4)c23)cc1
test-target: Plasmodium berghei
IC50 [µM]: 3.69

====

system: Plasmodium berghei; test: Luciferase/luciferin-expressing antifolate-resistant parasites were used to infect a culture of HepG2 cells that were pre-incubated with compounds. Infected hepatocytes emit light due to the luciferase reaction. Assay results are presented as the percent inhibition of light emission compared to control. […]; assay type: functional; settings: sporozoite, FFLUC_HILL_SLOPE 15.8, FFLUC_R_SQUARED 0.096, HEPG2TOX_HILL_SLOPE 2.21, HEPG2TOX_R_SQUARED 0.952, PBLUC_HILL_SLOPE 13.8, PBLUC_R_SQUARED 0.121, read-out: LUCIFERASE INFECTION ASSAY - IC50
pIC50: −log10 of the molar value.

smiles-code: Cn1nc(-c2ccccc2)c(/C=N/O)c1Sc1ccc(C(C)(C)C)cc1
pIC50: 5.06
